- STUDY TARGET: E. coli RNase P holoenzyme (M1 P RNA + rnpA protein)
- Sequence: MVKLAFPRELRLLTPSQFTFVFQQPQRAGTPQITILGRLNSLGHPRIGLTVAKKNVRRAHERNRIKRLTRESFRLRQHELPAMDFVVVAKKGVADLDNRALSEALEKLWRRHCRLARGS
- ASSAY OVERVIEW: relative kcat/Km (krel) vs genomic leader AAAGAU (relative (reference leader = 1)); higher = faster RNase P cleavage
- CONDITION DETAILS: fraction of substrate reacted: ~26-29% (28.66% repeat 1, 26.4% repeat 2)
Whole data set: some 4,100 sequences, median “relative kcat/Km (krel) vs genomic leader AAAGAU” near 1.7, cut for the highest 2% near 6.5. Only a selection was taken, and the highest values are over-represented in it overall.
READOUT: relative kcat/Km
Form rule: numeric answer, no unit written next to it.

CHAIN	relative kcat/Km
TCCAGG	2.14

Please turn your attention to the following entry.
Enquiry: I am curious: what relative kcat/Km value has been reported for "ATAGGT" ?
Return: 2.15
